Test: PET hydrolysis, aromatic products released after 48 h (umol product/mg enzyme); higher = more PET depolymerization activity
Conditions: substrate: cryPow; 40 °C; pH 5.5
// PET hydrolysis lookup, one value per entry
The reply should be a number, written without any unit.

The examples below pair each entry with its known result.
orderedResidues	PET hydrolysis
LNPYQRGPNPTDAILEASSGPYATSSISVPSIVSGFGGGRIYYPTTTADGTFGGIAISPGFTATWSSLSWLGPRLASHGFVVIGIETNTIYDQPTSRGQQLLAALDYLVNTSSVRTRVDSSRLAVAGHSMGGGGTLWAANSRPSLQAAIPLAPWNTDKSWSGVRVPTLIVGGQSDTVAPVATHSIPFYTSIPAASEKAYLELRSASHFFPQTVNTTVAVSMVSWLKRYVDDDTRYDPWLCPGPSGLSVSDYRDTCPA [TEP178]	6
SAQVTRQAAGSYARGPAPTLAGIRAALGPFAYSTVTVTAAQAGGAFGGGTIYYPDDTSQGTFGGVAAVPGYQSAEKAVAWLGPRLASQGFVVITIATNGLTDQPTARGKQLLGALDYLTAQSPAAVRQRLDPNRLAVTGHSMGGGGTLYAAWTRPSLKAAVPLAPWHTIKNWSGITVPTLVQGGTQDTTAQVGTFAEPIYQSLTGARERAYAEIADAAHGTFVRENPLIGALEVAWLKRFVDDDGRYEQFLCPAPADSELTEYRDSCPSS [DP009]	4

Now take the following sequence into account.
Respond only with PET hydrolysis recorded for MSNPYQRGPNPTRSALTADGPFSVATYTVSRLSVSGFGGGVIYYPTGTSLTFGGIAMSPGYTADASSLAWLGRRLASHGFVVLVINTNSRFDGPDSRASQLSAALNYLRTSSPSAVRARLDANRLAVAGHSMGGGGTLRIAEQNPSLKAAVPLTPWHTDKTFNTSVPVLIVGAEADTVAPVSQHAIPFYQNLPSTTPKVYVELCNASHIAPNSNNAAISVYTISWMKLWVDNDTRYRQFLCNVNDPALCDFRTNNRHCQLEHHHHHH [LCC-ICCG] 51.5
